- Organism: Rattus norvegicus
- Protocol Description: DrugMatrix - Regimen: Daily Repeat
- Type: toxicity, organism-based, Sprague-Dawley
- Set-up: regimen Daily Repeat, gender Male, age 6-8 weeks
- Condition: in vivo, po, 0 mg/kg, 72 h, tissue Plasma, route oral GAVAGE, dose level Control, time 3 day, […]
Rule: PHOSPHORUS of 10 mg/dL or more gives Criterion met; anything lower gives Criterion not met.

Query: Has CC[C@H](C)C(=O)O[C@H]1C[C@@H](C)C=C2C=C[C@H](C)[C@H](CC[C@@H]3C[C@@H](O)CC(=O)O3)[C@H]21 [LOVASTATIN] a recorded PHOSPHORUS greater than or equal to 10 mg/dL?
Result: Criterion met

Query: Has COc1ncnc(NS(=O)(=O)c2ccc(N)cc2)c1OC [SULFADOXINE] a recorded PHOSPHORUS greater than or equal to 10 mg/dL?
Result: Criterion not met

Query: Has CC(=O)Nc1nnc(S(N)(=O)=O)s1 [ACETAZOLAMIDE] a recorded PHOSPHORUS greater than or equal to 10 mg/dL?
Result: Criterion not met

Query: Has CCn1cc(C(=O)O)c(=O)c2cc(F)c(N3CCNCC3)nc21 [ENOXACIN] a recorded PHOSPHORUS greater than or equal to 10 mg/dL?
Result: Criterion met

Query: Has C#C[C@]1(O)CC[C@H]2[C@@H]3CCc4cc(O)ccc4[C@H]3CC[C@@]21C [ETHINYL ESTRADIOL] a recorded PHOSPHORUS greater than or equal to 10 mg/dL?
Result: Criterion met

Query: Has CC(C)Cc1ccc(CC(=O)O)cc1 [IBUFENAC] a recorded PHOSPHORUS greater than or equal to 10 mg/dL?
Result: Criterion met

---

Provide the recorded ALKALINE PHOSPHATASE for the entries that follow.
- Organism: Rattus norvegicus
- Protocol Description: DrugMatrix - Regimen: Daily Repeat
- Type: toxicity, organism-based, Sprague-Dawley
- Set-up: regimen Daily Repeat, gender Male, age 6-8 weeks
- Condition: in vivo, po, 0 mg/kg, 120 h, tissue Plasma, route oral GAVAGE, dose level Control, time 5 day, vehicle 100 % WATER
The answer is to be given in u/L; state only the numeric part.

Query: Identify ALKALINE PHOSPHATASE associated with the compound CCCc1nn(C)c2c(=O)[nH]c(-c3cc(S(=O)(=O)N4CCN(C)CC4)ccc3OCC)nc12
Result: 336.83

Query: Identify ALKALINE PHOSPHATASE associated with the compound CNS(=O)(=O)Cc1ccc2[nH]cc(CCN(C)C)c2c1
Result: 367.5

Query: Identify ALKALINE PHOSPHATASE associated with the compound Cc1c(N(C)CS(=O)(=O)[O-])c(=O)n(-c2ccccc2)n1C.[Na+] [DIPYRONE SODIUM]
Result: 414.5

Query: Identify ALKALINE PHOSPHATASE associated with the compound Nc1ccc(S(=O)(=O)Nc2nccs2)cc1
Result: 395.67

Query: Identify ALKALINE PHOSPHATASE associated with the compound CC(C)(C)NC[C@H](O)COc1nsnc1N1CCOCC1
Result: 395.67

Query: Identify ALKALINE PHOSPHATASE associated with the compound CC[C@H]1OC(=O)[C@H](C)[C@@H](O[C@H]2C[C@@](C)(OC)[C@@H](O)[C@H](C)O2)[C@H](C)[C@@H](O[C@@H]2O[C@H](C)C[C@H](N(C)C)[C@H]2O)[C@](C)(O)C[C@@H](C)CN(C)[C@H](C)[C@@H](O)[C@]1(C)O
Result: 367.33

Query: Identify ALKALINE PHOSPHATASE associated with the compound CCOC(N)=O
Result: 395

Query: Identify ALKALINE PHOSPHATASE associated with the compound O=C(O)c1cccnc1
Result: 391.5

Query: Identify ALKALINE PHOSPHATASE associated with the compound CN1C2CCCC1CC(NC(=O)c1nn(C)c3ccccc13)C2 (centres undefined)
Result: 395.67
